Listed molecules paired with reported relative cell viability
# System: HL-1
# ASSAY_NAME: relative cell viability (CellTiter-Glo) vs DMSO control (% of DMSO control); higher = more viable cells
# EXPERIMENTAL_PARAMETERS: oxygen condition: hypoxia 48 h (1% O2) + reoxygenation 24 h; 40 nM
Counter-ions that a name gives are not always drawn.

Answered cases to consult:
N#C[C@@H]1CCCN1C(=O)CNC12CC3CC(CC(O)(C3)C1)C2
63.4
Cc1[nH]c(=O)c(C#N)cc1-c1ccncc1
102
COCCCC/C(=N\OCCN)c1ccc(C(F)(F)F)cc1 [Fluvoxamine maleate]
101
CC1=C(C(=O)OC(C)C)C(c2cccc([N+](=O)[O-])c2)C(C(=O)OC2CN(C(c3ccccc3)c3ccccc3)C2)=C(N)N1 (configuration not stated)
104
COc1cc2c(cc1OC)C(=O)C(CC1CCN(Cc3ccccc3)CC1)C2 (configuration not stated) [Donepezil HCl]
106
CN1C[C@@H]2C[C@H]1CN2c1cc2c(cc1F)c(=O)c(C(=O)O)cn2C1CC1 [Danofloxacin Mesylate]
106

Entry CCOc1ccc2ccccc2c1C(=O)N[C@@H]1C(=O)N2[C@@H]1SC(C)(C)[C@@H]2C(=O)O [nafcillin sodium monohydrate] has what relative cell viability?
92.6

// same read-out, input: "O=C(O)/C=C/c1ccc(Cn2ccnc2)cc1"
102

// same read-out, input: "C=CCNC(N)=S"
118

// same read-out, input: "C=C[C@]1(C)C[C@@H](OC(=O)CS[C@@H]2C[C@H]3CC[C@@H](C2)N3C)[C@]2(C)[C@H](C)CC[C@]3(CCC(=O)[C@H]32)[C@@H](C)[C@@H]1O"
104

// same read-out, input: Cc1ccc(S(=O)(=O)NC(=O)NN2CCCCCC2)cc1 [Tolazamide]
101

// same read-out, input: O=S(=O)(O)c1cc(O)ccc1O [Ethamsylate]
105

// same read-out, input: N=C(N)NC(=O)c1nc(Cl)c(N)nc1N [Amiloride hydrochloride dihydrate]
101

// same read-out, input: NS(=O)(=O)c1cc2c(cc1Cl)N=C(CSCc1ccccc1)NS2(=O)=O [Benzthiazide]
103

// same read-out, input: "C[C@]12CCC(=O)C=C1[C@@H]1C[C@@H]1[C@H]1[C@@H]3[C@@H]4C[C@@H]4[C@@]4(CCC(=O)O4)[C@@]3(C)CC[C@@H]12"
104

// same read-out, input: CN1CCCC(n2nc(Cc3ccc(Cl)cc3)c3ccccc3c2=O)CC1 (configuration not stated) [Azelastine hydrochloride]
96.2

// same read-out, input: "CN1CCN(C2=Nc3cc(Cl)ccc3Nc3ccccc32)CC1"
105

###

# Tested on: HL-1
# ASSAY_NAME: relative cell viability (CellTiter-Glo) vs DMSO control (% of DMSO control); higher = more viable cells
# EXPERIMENTAL_PARAMETERS: oxygen condition: hypoxia 48 h (1% O2) + reoxygenation 24 h; 1000 nM
Listed compounds paired with reported relative cell viability
Answer with a number only.

Answered cases to consult:
C[C@]12CC[C@@H]3c4ccc(O)cc4C[C@@H](CCCCCCCCC[S+]([O-])CCCC(F)(F)C(F)(F)F)[C@H]3[C@@H]1CC[C@@H]2O (stereo partly drawn) [Fulvestrant]
110
CC(C)CC(N)=O [Isovaleramide]
96.4

Entry CC1COc2c(N3CCN(C)CC3)c(F)cc3c(=O)c(C(=O)O)cn1c23 (stereo not drawn) [Ofloxacin] has what relative cell viability?
97.8

// same read-out, input: C[C@@H](O[C@H]1OCCN(Cc2nn(P(=O)(O)O)c(=O)[nH]2)[C@H]1c1ccc(F)cc1)c1cc(C(F)(F)F)cc(C(F)(F)F)c1 [Fosaprepitant dimeglumine]
119

// same read-out, input: CCN(CC)CCNC(=O)c1c(C)[nH]c(/C=C2\C(=O)Nc3ccc(F)cc32)c1C [Sunitinib Malate]
107

// same read-out, input: CCCCOc1ccc(CC(=O)NO)cc1 [Bufexamac]
111

// same read-out, input: CN(CCOc1ccc(CC2SC(=O)NC2=O)cc1)c1ccccn1 (stereo not drawn) [Rosiglitazone]
98.3

// same read-out, input: Cc1ccc(C)c(OCCCC(C)(C)C(=O)O)c1 [Gemfibrozil]
101

// same read-out, input: O=S(=O)(O)CCS [Mesna]
116

// same read-out, input: C#C[C@]1(OC(C)=O)CC[C@H]2[C@@H]3CCC4=C[C@@H](OC(C)=O)CC[C@@H]4[C@H]3CC[C@@]21C [Ethynodiol diacetate]
113

###

# System: HL-1
# ASSAY_NAME: relative cell viability (CellTiter-Glo) vs DMSO control (% of DMSO control); higher = more viable cells
# EXPERIMENTAL_PARAMETERS: oxygen condition: hypoxia 48 h (1% O2) + reoxygenation 24 h; 5000 nM
Where a name gives a salt, the structure may show the parent alone.
READOUT_LABEL: relative cell viability

C[N+](C)(C)CC(O)CC(=O)[O-] (racemic) [DL-Carnitine hydrochloride]
107
COc1cc([C@@H]2c3cc4c(cc3[C@@H](O[C@@H]3O[C@@H]5CO[C@@H](c6cccs6)O[C@H]5[C@H](O)[C@H]3O)[C@H]3COC(=O)[C@H]23)OCO4)cc(OC)c1O [Teniposide]
115
CNNCc1ccc(C(=O)NC(C)C)cc1 [Procarbazine HCl]
108
CC[C@H](C)C(=O)O[C@H]1CCC=C2C=C[C@H](C)[C@H](CC[C@@H]3C[C@@H](O)CC(=O)O3)[C@H]21
113
CCC(CC)[C@H](NC(C)=O)[C@@H]1[C@H](O)[C@@H](C(=O)O)C[C@H]1NC(=N)N [Peramivir Trihydrate]
111

Entry CC(=O)NS(=O)(=O)c1ccc(N)cc1 [sulfacetamide sodium] has what relative cell viability?
104

// same read-out, input: CN(C)CCOc1ccc(/C(=C(/CCCl)c2ccccc2)c2ccccc2)cc1 [Toremifene Citrate]
108

###

# System: HL-1
# ASSAY_NAME: relative cell viability (CellTiter-Glo) vs DMSO control (% of DMSO control); higher = more viable cells
# EXPERIMENTAL_PARAMETERS: oxygen condition: normoxia 72 h; 40 nM
Counter-ions that a name gives are not always drawn.
Hi! Could you tag entries with relative cell viability below 100 as rule met, and those at or above as rule not met? Much appreciated.

Consider the following illustrative entries.
CC1=NN(c2ccccc2)C(=O)C1
rule met
CC(C)[C@H](N)C(=O)OCC(CO)OCn1cnc2c(=O)nc(N)[nH]c21 (some centres undefined) [valganciclovir hydrochloride]
rule not met
CCOc1ccccc1OC(c1ccccc1)C1CNCCO1 (centres undefined) [Reboxetine mesylate]
rule not met
Nc1ccc(C(=O)O)c(O)c1 [Aminosalicylate sodium]
rule not met

Field: next molecule
Quick check: does COc1ccc(CN2CCN(C(c3ccc(F)cc3)c3ccc(F)cc3)CC2)c(OC)c1OC [Lomerizine HCl] have relative cell viability under 100?
rule met

###

Listed compounds paired with reported relative cell viability
# System: HL-1
# ASSAY_NAME: relative cell viability (CellTiter-Glo) vs DMSO control (% of DMSO control); higher = more viable cells
# EXPERIMENTAL_PARAMETERS: oxygen condition: hypoxia 48 h (1% O2) + reoxygenation 24 h; 1000 nM
Where a name gives a salt, the structure may show the parent alone.
Answer with a number only.

CN1CCCCC1CCN1c2ccccc2Sc2ccc([S+](C)[O-])cc21 (stereo unspecified) [Mesoridazine Besylate]
105
CCOCC(O)COc1ccc(NC(=O)CC[S+](C)C)cc1 (stereo unspecified) [Suplatast tosylate]
99.4
C[C@]12CC[C@@H]3c4ccc(O)cc4CC[C@H]3[C@@H]1C[C@@H](O)[C@@H]2O [Estriol]
95.4

Entry COCCOC(=O)C1=C(C)NC(C)=C(C(=O)OC/C=C/c2ccccc2)C1c1cccc([N+](=O)[O-])c1 (stereo unspecified) [Cilnidipine] has what relative cell viability?
110

// same read-out, input: C=C1CC[C@H](O)C/C1=C/C=C1\CCC[C@]2(C)[C@@H]([C@H](C)/C=C/[C@H](C)C(C)C)CC[C@@H]12 [Vitamin D2]
111

// same read-out, input: "C[C@@H](NCCCc1cccc(C(F)(F)F)c1)c1cccc2ccccc12"
105

###

# Tested on: HL-1
# ASSAY_NAME: relative cell viability (CellTiter-Glo) vs DMSO control (% of DMSO control); higher = more viable cells
# EXPERIMENTAL_PARAMETERS: oxygen condition: normoxia 72 h; 5000 nM
Listed molecules paired with reported relative cell viability
Answer with a number only.

Answered cases to consult:
CCCN[C@H]1CCc2nc(N)sc2C1 [Pramipexole]
108
CCOC(=O)C1=C(COCCN)NC(C)=C(C(=O)OC)C1c1ccccc1Cl (configuration not stated) [Amlodipine besylate]
102
CCN(CC)C(=O)/C(C#N)=C/c1cc(O)c(O)c([N+](=O)[O-])c1 [Entacapone]
114

Entry C=CCNC(N)=S [Allylthiourea] has what relative cell viability?
124

// same read-out, input: CCOC(=O)[C@H](CCc1ccccc1)N[C@@H](C)C(=O)N1C(=O)N(C)C[C@H]1C(=O)O [Imidapril]
113
